SYSTEM TESTED: HLA-A*02:01
MEASUREMENT NOTES: IEDB peptide-MHC binding, purified MHC/competitive/radioactivity; filed as Kd, often an IC50 or EC50 that approximates it; bounds were set here for any values at or beyond the usual limits of such assays
MEASUREMENT CONTEXT: source organism: Lassa virus GA391
ASSAY METRIC: Kd (nM)
Only the number, expressed in nM, is required.

**Query** Identify measured Kd associated with LLHGLDFSEV
**Result** 65.8

###

SYSTEM TESTED: HLA-B*38:01
MEASUREMENT NOTES: IEDB peptide-MHC binding, purified MHC/direct/fluorescence; filed as Kd, often an IC50 or EC50 that approximates it; bounds were set here for any values at or beyond the usual limits of such assays
MEASUREMENT CONTEXT: source organism: Influenza A virus(A/swine/Shandong/fNY/2003(H9N2))
ASSAY METRIC: Kd

**Query** Provide only the value of recorded Kd for ITKEKKEEL
**Result** ≥ 20 µM
